Collected pKd values appear next to each entry.
target: T1, human pro-myostatin (human, UniProt O14793 24-375, biotinylated (in the SPR assay)); test: SPR Biacore 8K, biotin-antigen captured
T1 construct: Disulfide-linked homodimer; also called proGDF8 (human)
Quick note: pKd means taking -log10 of the concentration in moles per liter.

BINDER	METRIC NAME	VALUE REPORTED
Ab140 (antibody, human IgG4 S228P, kappa, V domains shown) VH: EVQLVESGGGLVQPGGSLRLSCAASGFTFSSYGMSWVRQAPGKGLELVASFTGSGGTYYPDSVKGRFTISRDNAKNSLYLQMNSLRAEDTAVYYCARDNLIRFLEWSHYYGMDVWGQGTTVTVSS VL: DIVMTQSPLSLPVTPGEPASISCRSSQSLLHSSGHNFLHWYLQKPGQSPQLLIYEVSNRESGVPDRFSGSGSGTDFTLKISRVEAEDVGVYYCQQQTQYPPTFGGGTKVEIKR	pKd	9.96
Ab121 (antibody, human IgG4 S228P, kappa, V domains shown) VH: QVTLRESGPALVKPTQTLTLTCTVSGFSFSTSGMVVNWIRQPPGKALEWLAMIDWDADNIVYNSALKSRLTISKDTSKNQVVLTMTNMDPVDTATYYCAKDTGSGWFDAFDIWGQGTMVTVSS VL: DIVMTQSPDSLAVSLGERATINCKSSQSVLYSSTNQNFLAWYQQKPGQPPKLLIYQASTLQNGVPDRFSGSGSGTDFTLTISSLQAEDVAVYYCQQYLTTPYTFGGGTKVEIKR	pKd	10.00

Next, consider the following binder.
IN: Note down pKd recorded for Ab127 (antibody, human IgG4 S228P, kappa, V domains shown) VH: EVQLVESGGGLVQPGGSLRLSCTASGFTFGSYPMDWVRQAPGKGLEWVSYISGRGDVTYYADSVKGRFTISRDNAKNTLYLQMNSLRAEDTAVYYCAKVQSPSELLWFGELLPVDYWGQGTLVTVSS VL: DIQMTQSPSSLSASVGDRVTITCQASQVIKTWLNWYQQKPGKAPKLLIYDASNLQRGVPSRFSGSGSGTDFTFTISSLQPEDIATYYCQQSASTPITFGGGTKVEIKR
OUT: 9.58
